# tested.system: human muscarinic acetylcholine M3 receptor (M3-ACh) (Homo sapiens, UniProt P20309)
# Construct: expressed in transfected cells; host or cells: CHO-K1 (Chinese Hamster Ovary) cell membranes
# Sequence (P20309 whole entry): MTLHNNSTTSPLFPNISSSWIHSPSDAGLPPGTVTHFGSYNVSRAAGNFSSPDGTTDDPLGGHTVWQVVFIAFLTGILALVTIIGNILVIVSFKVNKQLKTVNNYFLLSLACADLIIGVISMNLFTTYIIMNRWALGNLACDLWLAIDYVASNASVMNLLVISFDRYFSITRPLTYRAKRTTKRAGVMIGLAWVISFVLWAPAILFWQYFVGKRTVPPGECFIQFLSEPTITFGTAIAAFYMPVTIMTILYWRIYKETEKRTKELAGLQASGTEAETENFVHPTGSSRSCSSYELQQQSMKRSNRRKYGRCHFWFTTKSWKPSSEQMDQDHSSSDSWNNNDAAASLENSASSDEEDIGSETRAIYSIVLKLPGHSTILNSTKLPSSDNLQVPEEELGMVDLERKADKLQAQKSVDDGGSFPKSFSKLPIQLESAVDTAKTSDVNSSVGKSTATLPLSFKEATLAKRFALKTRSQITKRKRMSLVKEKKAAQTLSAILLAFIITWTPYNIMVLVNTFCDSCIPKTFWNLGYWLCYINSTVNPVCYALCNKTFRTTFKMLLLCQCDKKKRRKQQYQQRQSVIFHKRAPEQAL
# experimental.details: Muscarinic 3 Receptor Binding Assay, % inhibition specific binding at 1 μM
# experimental.context: 1 μM compound, % inhibition specific [3H]-NMS binding
Assignment: determine reported inhibition at 1 µM for the given compounds.
Response body: numeric value in %, unit text excluded.

Ask | Fill in: inhibition at 1 µM of O=C(c1ccc(-c2cnco2)cc1)N1CCOC2(CCN(Cc3cc(F)cc(CCNC[C@H](O)c4ccc(O)c5[nH]c(=O)sc45)c3)CC2)C1 is ___
Reply | 3

Ask | What would you report for Cc1ccn(CC(=O)N2CCOC3(CCN(CCCCCCCCCNC[C@H](O)c4ccc(O)c5[nH]c(=O)sc45)CC3)C2)n1 ?
Reply | 97

Ask | What would you report for Cc1cccc2nc(C(=O)N3CCOC4(CCN(Cc5cc(F)cc(CCNC[C@H](O)c6ccc(O)c7[nH]c(=O)sc67)c5)CC4)C3)cn12 ?
Reply | 56

Ask | What would you report for Cc1nc2cc(C(=O)N3CCOC4(CCN(CCCCCCCCCNC[C@H](O)c5ccc(O)c6[nH]c(=O)sc56)CC4)C3)ccc2s1 ?
Reply | 94

Ask | What would you report for CCOc1ccc(O)c(C(=O)N2CCOC3(CCN(Cc4cc(F)cc(CCNC[C@H](O)c5ccc(O)c6[nH]c(=O)sc56)c4)CC3)C2)c1 ?
Reply | 28

Ask | What would you report for Cc1ccccc1C(=O)N1CCOC2(CCN(Cc3cc(F)cc(CCNC[C@H](O)c4ccc(O)c5[nH]c(=O)sc45)c3)CC2)C1 ?
Reply | 28

Ask | What would you report for CC(C)(C(=O)N1CCOC2(CCN(CCOc3ccc(CNC[C@H](O)c4ccc(O)c5[nH]c(=O)sc45)cc3)CC2)C1)c1ccccc1 ?
Reply | 31

Ask | What would you report for O=C(c1cnc(-c2ccccc2)[nH]1)N1CCOC2(CCN(Cc3cc(F)cc(CCNC[C@H](O)c4ccc(O)c5[nH]c(=O)sc45)c3)CC2)C1 ?
Reply | 3

Ask | What would you report for O=C(Cc1ccsc1)N1CCOC2(CCN(CCOc3ccc(CNC[C@H](O)c4ccc(O)c5[nH]c(=O)sc45)cc3)CC2)C1 ?
Reply | 51

Ask | What would you report for CC(C)n1nnc2cc(C(=O)N3CCOC4(CCN(Cc5cc(F)cc(CCNC[C@H](O)c6ccc(O)c7[nH]c(=O)sc67)c5)CC4)C3)ccc21 ?
Reply | -3

Ask | What would you report for O=C(c1cc2cc(Cl)ccc2o1)N1CCOC2(CCN(Cc3cc(F)cc(CCNC[C@H](O)c4ccc(O)c5[nH]c(=O)sc45)c3)CC2)C1 ?
Reply | 16

Ask | What would you report for O=C(c1csc(C2CC2)n1)N1CCOC2(CCN(CCCCCCCCCNC[C@H](O)c3ccc(O)c4[nH]c(=O)sc34)CC2)C1 ?
Reply | 100
